# method.notes: Compound gel-forming ability in water (visual inspection, tube tapping assay, tilted tube assay)
# Type: physicochemical
# condition.description: 11% w/w in water
Where no end group is shown, it is not given here. The star is where a group is joined. Palmitoyl = CCCCCCCCCCCCCCCC(=O)*

{"substance": "EAYKAAEKAYAAKEAAKEAAKAKAEKKAAYAKAKAAKYEKKAKKAAAEYKKK [SEQ ID NO:42, reference compound]", "gel formation at 11% w/w": "does not form gel"}
{"substance": "Pal-KVQKLSAPVDPSSPHSY-miniPEG-Sar-RVYVHPA-NH2 [SEQ ID NO:216]", "gel formation at 11% w/w": "liquid gel"}
{"substance": "Pal-SDAAVDTSSEITTKDLKEKKEVVEEAEN-NH2 [SEQ ID NO:268]", "gel formation at 11% w/w": "semisolid gel"}
{"substance": "Pal-KVQKLSAPVDPSSPHSY-miniPEG-CYIQNCPLG-NH2 [SEQ ID NO:205]", "gel formation at 11% w/w": "semisolid gel"}
{"substance": "HSDAVFTDNYTRLRKQ-Nle-AVKKYLNSILN-(Pal-K)-SY-NH2 [SEQ ID NO:266]", "gel formation at 11% w/w": "semisolid gel"}
{"substance": "HGDGSFSDEMNTILDNLAARDFINWLIQTKITD-OH [SEQ ID NO:12, reference compound]", "gel formation at 11% w/w": "liquid gel"}
{"substance": "Pal-SSPHSY-miniPEG-YIGSR-NH2 [SEQ ID NO:246]", "gel formation at 11% w/w": "semisolid gel"}
{"substance": "CSNLSTCVLGKLSQELHKLQTYPRTNTGSGTP-NH2 [SEQ ID NO:28, reference compound]", "gel formation at 11% w/w": "does not form gel"}
{"substance": "Pal-HSYEEMQRR-NH2 [SEQ ID NO:250]", "gel formation at 11% w/w": "semisolid gel"}
{"substance": "FTLSLDVPTNIMNLLFNIAKAKNLRAQAAANAHLMAQI-NH2 [SEQ ID NO:10, reference compound]", "gel formation at 11% w/w": "semisolid gel"}
{"substance": "Pal-SSPHSY-miniPEG-KCNTATCATQRLANFLVHSSNNFGPILPPTNVGSNTY-NH2 ({Palmitoyl-Ser-Ser-Pro-H2N-Ser-Tyr-miniPEG}-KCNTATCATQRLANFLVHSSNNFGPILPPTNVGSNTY-NH2; ends and bridges not checked) [SEQ ID NO:218]", "gel formation at 11% w/w": "semisolid gel"}
{"substance": "Pal-SSPHSY-miniPEG-ICVVQDWGHHRCT-NH2 [SEQ ID NO:244]", "gel formation at 11% w/w": "semisolid gel"}
{"substance": "HSDAVFTDNYTRLRKQMAVKKYLNSILN [SEQ ID NO:67, reference compound]", "gel formation at 11% w/w": "does not form gel"}
{"substance": "Pal-KVQKLSAPVDPSSPHSY-miniPEG-CYFQNCPRG-NH2 [SEQ ID NO:204]", "gel formation at 11% w/w": "semisolid gel"}
{"substance": "Pal-HSDAAVDTSSEITTKDLKEKKEVVEEAEN-NH2 [SEQ ID NO:267]", "gel formation at 11% w/w": "semisolid gel"}

---

# method.notes: Compound gel-forming ability in water (visual inspection, tube tapping assay, tilted tube assay)
# Type: physicochemical
# condition.description: Table 1; 11% w/w in aqueous solution, room temperature
Where no end group is shown, it is not given here.
property.name: Physical property at 11% w/w

{"substance": "YRSRKYSSWY-NH2 [SEQ ID NO:46, reference compound]", "result": "AS/IS"}
{"substance": "SLRRSSCFGGRMDRIGAQSGLGCNSFRY-NH2 [SEQ ID NO:41, reference compound]", "result": "AS/IS"}
{"substance": "Ac-EEMQRR-NH2 [SEQ ID NO:47, reference compound]", "result": "AS/IS"}

---

# method.notes: Compound gel-forming ability in water (visual inspection, tube tapping assay, tilted tube assay)
# Format: physicochemical
# condition.description: 6% w/w in water
property.name: gel formation at 6% w/w

{"substance": "Pal-SSPHSY-miniPEG-HGDGSFSDEMNTILDNLAARDFINWLIQTKITD-OH [SEQ ID NO:222]", "property.name": "gel formation at 6% w/w", "result": "liquid gel"}
{"substance": "Pal-HSYKRPPGFS-(DβNal)-Ile-NH2 [SEQ ID NO:261]", "property.name": "gel formation at 6% w/w", "result": "liquid gel"}

---

# method.notes: Compound gel-forming ability in water (visual inspection, tube tapping assay, tilted tube assay)
# Format: physicochemical
# condition.description: Table 5; 6% w/w
The star is where a group is joined. Palmitoyl = CCCCCCCCCCCCCCCC(=O)*
property.name: propensity to form gels, chimeric or mutated polypeptides, 6%

{"substance": "Pal-SSPHSY-miniPEG-ICVVQDWGHHRCT-NH2 [SEQ ID NO:244]", "result": "AS/IS"}
{"substance": "Pal-SSPHSY-miniPEG-YRSRKYSSVVY-NH2 ({Palmitoyl-Ser-Ser-Pro-H2N-Ser-Tyr-miniPEG}-YRSRKYSSVVY-NH2) [SEQ ID NO:249]", "result": "AS/IS"}

---

# method.notes: Compound gel-forming ability in water (visual inspection, tube tapping assay, tilted tube assay)
# Format: physicochemical
# condition.description: 11% w/w in water
Where a SMILES comes first, the peptide text is derived from it. [ ]: non-standard residue; d: D form. The star is where a group is joined. Palmitoyl = CCCCCCCCCCCCCCCC(=O)*; AEEA = NCCOCCOCC(=O)O
property.name: gel formation at 11% w/w

{"compound": "N=C(N)NCCC[C@@H](N)C(=O)N[C@@H](CCCNC(=N)N)C(=O)N1CCC[C@H]1C(=O)N1C[C@H](O)C[C@H]1C(=O)NCC(=O)N[C@@H](Cc1cccs1)C(=O)N[C@@H](CO)C(=O)N1Cc2ccccc2C[C@@H]1C(=O)N1[C@H](C(=O)N[C@@H](CCCNC(=N)N)C(=O)O)C[C@@H]2CCCC[C@@H]21 [SEQ ID NO:32, reference compound]", "result": "does not form gel"}
{"compound": "NC(=O)CC[C@@H]1NC(=O)[C@H](Cc2ccccc2)NC(=O)[C@H](Cc2ccc(O)cc2)NC(=O)[C@@H](N)CSSC[C@@H](C(=O)N2CCC[C@H]2C(=O)N[C@@H](CCCN=C(N)N)C(=O)NCC(N)=O)NC(=O)[C@H](CC(N)=O)NC1=O [SEQ ID NO:17, reference compound]", "result": "does not form gel"}
{"compound": "CCCCCCCCCCCCCCCC(=O)N[C@@H](CO)C(=O)N[C@@H](CO)C(=O)N1CCC[C@H]1C(=O)N[C@@H](Cc1c[nH]cn1)C(=O)N[C@@H](CO)C(=O)N[C@@H](Cc1ccc(O)cc1)C(=O)NCCOCCOCC(=O)N[C@H](Cc1ccccc1)C(=O)N[C@H](Cc1ccccc1)C(=O)N[C@@H](Cc1c[nH]c2ccccc12)C(=O)N[C@H](CCCNC(=N)N)C(=O)O [SEQ ID NO:214] (Palmitoyl-SSPHSY[AEEA][dF][dF]W[dR]-OH; N-terminus and C-terminus assumed)", "result": "semisolid gel"}
{"compound": "CC[C@H](C)[C@@H]1NC(=O)[C@H](Cc2ccc(O)cc2)NC(=O)[C@@H](N)CSSC[C@@H](C(=O)N2CCC[C@H]2C(=O)N[C@@H](CC(C)C)C(=O)NCC(N)=O)NC(=O)[C@H](CC(N)=O)NC(=O)[C@H](CCC(N)=O)NC1=O [SEQ ID NO:5, reference compound]", "result": "semisolid gel"}

---

# method.notes: Compound gel-forming ability in water (visual inspection, tube tapping assay, tilted tube assay);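 also: peptides mixed with de-ionized water at about 22-25 °C, judged after 20 min by eye plus tube tapping (10 taps, moves counted) and 90° tilt mobility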
# Format: physicochemical
# condition.description: Table 5; 11% w/w
property.name: propensity to form gels, wild-type counterparts, 11%

{"compound": "N=C(N)NCCC[C@@H](N)C(=O)N[C@@H](CCCNC(=N)N)C(=O)N1CCC[C@H]1C(=O)N1C[C@H](O)C[C@H]1C(=O)NCC(=O)N[C@@H](Cc1cccs1)C(=O)N[C@@H](CO)C(=O)N1Cc2ccccc2C[C@@H]1C(=O)N1[C@H](C(=O)N[C@@H](CCCNC(=N)N)C(=O)O)C[C@@H]2CCCC[C@@H]21 [SEQ ID NO:32, reference compound]", "result": "AS/IS"}
{"compound": "NC(=O)CC[C@@H]1NC(=O)[C@H](Cc2ccccc2)NC(=O)[C@H](Cc2ccc(O)cc2)NC(=O)[C@@H](N)CSSC[C@@H](C(=O)N2CCC[C@H]2C(=O)N[C@@H](CCCN=C(N)N)C(=O)NCC(N)=O)NC(=O)[C@H](CC(N)=O)NC1=O [SEQ ID NO:17, reference compound]", "result": "AS/IS"}
